Target: human ATP Binding Cassette Subfamily C Member 1 (ABCC1) (UniProt P33527 1-1531)
Experiment: FACS cell binding
quantity: pKd
API: returns pKd as number; meaning -log10 of concentration in mol/L.

Below, each entry is followed by its recorded pKd result.
C1.861.hu61 (antibody, V domains shown) VH: EVQLVESGGGLIQPGGSLRLSCAVSGFSLTSSGVTWVRQPPGKGLEWIAAISSGGNIYYNSAVKSRLTISRDTSKNTVYLQMNSLRAEDTAVYFCTRARGTTTAYVMDAWGQGTTVTVSS VL: DVQLTQSPSSLSASVGDRVTITCKSSQSLLYSGNQKNYLAWYQQKPGKSPKLLIYWASTRQSGVPSRFSGSGSGTDFTLTISSLQPEDVATYYCQQYYDVLMNMFGGGTKLEIK: 6.66
C1.861.hu41 (antibody, V domains shown) VH: EVQLQESGPGLVKPSETLSLTCTVSGFSLTSSGVTWVRQPPGKGLEWIAAISSGGNIYYNSAVKSRLTISRDTSKNQVSLKLSSVTAADTAVYYCTRARGTTTAYVMDAWGQGTTVTVSS VL: DVQLTQSPSSLSASVGDRVTITCKSSQSLLYSGNQKNYLAWYQQKPGKSPKLLIYWASTRQSGVPSRFSGSGSGTDFTLTISSLQPEDVATYYCQQYYDVLMNMFGGGTKLEIK: 6.81
C1.861.hu21 (antibody, V domains shown) VH: EVQLVESGGGLIQPGGSLRLSCAVSGFSLTSNGVTWVRQPPGKGLEWIAAISSGGNIYYNSAVKSRLTISRDTSKNTVYLQMNSLRAEDTAVYFCTRARGTTTAYVMDAWGQGTTVTVSS VL: DVQLTQSPSSLSASVGDRVTITCKSSQSLLYSGNQKNYLAWYQQKPGKSPKLLIYWASTRQSGVPSRFSGSGSGTDFTLTISSLQPEDVATYYCQQYYDVLMNMFGGGTKLEIK: 7.42

Next binder, please.
Give the measured pKd of C1.831.hu41 (antibody, V domains shown) VH: EVQLQESGPGLVKPSETLSLTCTVSGFSLTSQGVSWVRQPPGKGLEWIAAISSGGNIYYNSVLKSRLTISRDTSKNQVSLKLSSVTAADTAVYYCTRERGWNYPFITSGYYFDYWGQGTLVTVSS VL: DIQLTQSPSSLSASVGDRVTITCKAGQNINNYLAWYQQKPGKAPKLLIYNANSLQTGIPSRFSGSGSGTDYTLTISSLQPEDFATYYCQQYNSWYTFGQGTKLEIK .
7.68
